System: Klebsiella pneumoniae ATCC 700603
test name: ≥ marks a high value that may be exact or a test limit, other limits are often not marked, values filed in µg/mL are converted to µM

| compound | MIC |
| --- | --- |
| CC[C@H](C)[C@H](NC(=O)[C@H](C)NC(=O)CNC(=O)[C@@H]1CCCN1C(=O)[C@@H](NC(=O)[C@H](CC(C)C)NC(=O)CNC(=O)[C@H](Cc1c[nH]c2ccccc12)NC(=O)[C@H](CC(C)C)NC(=O)[C@@H](N)Cc1ccccc1)[C@@H](C)CC)C(=O)N[C@@H](CO)C(=O)N[C@@H](C)C(=O)N[C@H](C(=O)N[C@H](C(=O)N[C@@H](CO)C(=O)N[C@@H](CC(C)C)C(=O)N[C@H](C(=O)N[C@@H](CCCCN)C(=O)N[C@@H](CCCCN)C(N)=O)[C@@H](C)CC)[C@@H](C)O)C(C)C | > 31.8 µM |

----------
System: Staphylococcus aureus NCTC 10788
Below, each entry is listed alongside its reported MIC.
measured quantity: MIC (µM)

| compound | measured quantity | value prefix | result value |
| --- | --- | --- | --- |
| CC[C@H](C)[C@H](NC(=O)[C@H](CC(C)C)NC(=O)CNC(=O)[C@@H]1CCCN1C(=O)[C@@H](NC(=O)[C@H](CCSC)NC(=O)CNC(=O)[C@H](CC(C)C)NC(=O)[C@@H](N)Cc1ccccc1)[C@@H](C)CC)C(=O)NCC(=O)NCC(=O)N[C@@H](CC(C)C)C(=O)N[C@H](C(=O)N[C@@H](CO)C(=O)N[C@@H](C)C(=O)N[C@@H](Cc1ccccc1)C(=O)N[C@@H](CCCCN)C(=O)O)[C@@H](C)CC | MIC | = | 5 |
| CC[C@H](C)[C@H](NC(=O)[C@H](C)NC(=O)[C@H](C)NC(=O)[C@@H]1CCCN1C(=O)[C@@H](NC(=O)[C@H](CC(C)C)NC(=O)[C@H](CCCCN)NC(=O)CNC(=O)[C@H](C)NC(=O)[C@@H](NC(=O)[C@H](CCCCN)NC(=O)[C@H](CC(C)C)NC(=O)[C@@H](NC(=O)[C@H](C)NC(=O)CNC(=O)[C@H](CC(C)C)NC(=O)[C@@H](N)Cc1ccccc1)C(C)C)C(C)C)C(C)C)C(=O)O | MIC | ≥ | 512 |
| CC[C@H](C)[C@H](NC(=O)CNC(=O)[C@H](C)NC(=O)[C@@H](NC(=O)[C@H](C)NC(=O)[C@@H]1CCCN1C(=O)[C@H](CC(C)C)NC(=O)[C@@H](N)Cc1ccccc1)[C@@H](C)CC)C(=O)N[C@@H](CC(C)C)C(=O)N[C@@H](CO)C(=O)N[C@@H](CCC(N)=O)C(=O)N[C@@H](CC(C)C)C(=O)N[C@@H](Cc1ccccc1)C(N)=O | MIC | ≥ | 200 |
| CC[C@H](C)[C@H](NC(=O)CNC(=O)[C@H](CO)NC(=O)[C@H](C)NC(=O)[C@@H](NC(=O)[C@H](Cc1cnc[nH]1)NC(=O)[C@@H]1CCCN1C(=O)[C@H](CC(C)C)NC(=O)[C@H](CC(C)C)NC(=O)[C@H](CO)NC(=O)[C@H](CC(C)C)NC(=O)[C@@H](N)Cc1ccccc1)[C@@H](C)CC)C(=O)N[C@@H](C)C(=O)N[C@@H](CO)C(=O)N[C@@H](CC(C)C)C(=O)N[C@H](C(=O)N[C@@H](CO)C(=O)N[C@@H](CCCCN)C(=O)N[C@@H](Cc1ccccc1)C(N)=O)C(C)C | MIC | = | 5 |
| CC(C)C[C@H](NC(=O)[C@H](C)N)C(=O)N[C@@H](Cc1c[nH]c2ccccc12)C(=O)N[C@@H](CCCCN)C(=O)N[C@@H](CCCCN)C(=O)N[C@@H](CC(C)C)C(=O)N[C@@H](CC(C)C)C(=O)N[C@@H](CCCCN)C(=O)N[C@@H](CCCCN)C(=O)N[C@@H](C)C(N)=O | MIC | ≥ | 64 |
| CC[C@H](C)[C@H](NC(=O)CNC(=O)CNC(=O)[C@H](C)NC(=O)[C@@H](NC(=O)[C@H](CCCCN)NC(=O)[C@@H]1CCCN1C(=O)[C@@H](NC(=O)[C@H](CCSC)NC(=O)[C@H](CO)NC(=O)[C@H](Cc1ccccc1)NC(=O)[C@@H](N)Cc1ccccc1)[C@@H](C)CC)[C@@H](C)CC)C(=O)N[C@@H](C)C(=O)N[C@@H](CO)C(=O)N[C@@H](CC(C)C)C(=O)N[C@H](C(=O)N[C@@H](CCCCN)C(=O)N[C@@H](CC(N)=O)C(=O)N[C@@H](CC(C)C)C(N)=O)C(C)C | MIC | = | 3.99 |
